Source: patent US20200002414A1

Provide the reported ratio, pH 6.0/7.4 of each item.
Target: T1, human Ror2 (human, UniProt Q01974 34-403, limits assumed)
T1 construct: also called hROR2; receptor tyrosine kinase-like orphan receptor 2
T1 sequence (Q01974 34-403 limits assumed): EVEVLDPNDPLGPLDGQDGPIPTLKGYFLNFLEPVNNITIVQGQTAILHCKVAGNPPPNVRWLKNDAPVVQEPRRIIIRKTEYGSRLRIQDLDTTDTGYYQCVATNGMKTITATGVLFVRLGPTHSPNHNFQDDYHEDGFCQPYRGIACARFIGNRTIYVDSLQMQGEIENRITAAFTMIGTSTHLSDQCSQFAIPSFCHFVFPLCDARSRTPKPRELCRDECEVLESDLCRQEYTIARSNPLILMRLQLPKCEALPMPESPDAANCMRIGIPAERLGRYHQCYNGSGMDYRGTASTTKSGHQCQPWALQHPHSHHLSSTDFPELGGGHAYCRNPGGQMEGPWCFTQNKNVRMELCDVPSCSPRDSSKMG
Experiment: ELISA, human Ror2; ratio of signal at pH 6.0 to pH 7.4
Form: value (number only, do not type unit).

-- ask Give its ratio, pH 6.0/7.4 value. Item: HC-A097S (antibody, V domains shown) VH: EVQLQQSGPELVKPGASVKISCKTSGYTFTEYTMHWMKQSHRKSLEWIGGINTNNGGTGYNQKFKGKATLTVDKSSSTAYMELRSLTSEDSAVYFCSRGSLYSYGNSYFDYWGQGTLVTVSS VL: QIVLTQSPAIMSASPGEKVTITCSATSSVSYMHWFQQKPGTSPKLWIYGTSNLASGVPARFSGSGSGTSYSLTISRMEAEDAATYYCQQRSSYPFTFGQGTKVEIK
-- reply 1.67

-- ask Would you mind doing HC-S103G (antibody, V domains shown) VH: EVQLQQSGPELVKPGASVKISCKTSGYTFTEYTMHWMKQSHRKSLEWIGGINTNNGGTGYNQKFKGKATLTVDKSSSTAYMELRSLTSEDSAVYFCARGSLYGYGNSYFDYWGQGTLVTVSS VL: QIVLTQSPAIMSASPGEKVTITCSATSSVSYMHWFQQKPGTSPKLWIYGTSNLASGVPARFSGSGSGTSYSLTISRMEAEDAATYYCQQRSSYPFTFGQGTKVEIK as well?
-- reply 1.21

-- ask Would you mind doing HC-T053E (antibody, V domains shown) VH: EVQLQQSGPELVKPGASVKISCKTSGYTFTEYTMHWMKQSHRKSLEWIGGINENNGGTGYNQKFKGKATLTVDKSSSTAYMELRSLTSEDSAVYFCARGSLYSYGNSYFDYWGQGTLVTVSS VL: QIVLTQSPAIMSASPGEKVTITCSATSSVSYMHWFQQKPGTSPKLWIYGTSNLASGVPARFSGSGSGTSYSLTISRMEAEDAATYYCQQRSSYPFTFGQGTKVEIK as well?
-- reply 3.44
